Provide the recorded calcium oscillation score for the entries that follow.
target system: Tau
test: rat primary cortical neurons, FLIPR, 25 uM ASO
Bases are written 5' to 3'; sugars and linkages follow in the same order, as letters with counts (s phosphorothioate, o phosphodiester; PS: all linkages phosphorothioate). The collection does not say whether C is 5-methylated. l = locked nucleic acid (LNA); d = 2'-deoxy (DNA)

According to the records, this sequence CACATGCTCACACACCAC (sugars l2 d13 l3, PS) displays calcium oscillation score of 97.5 % of control

For record TCCACCCTTACACATA (sugars l3 d11 l2, PS) the listed calcium oscillation score is 48.8 % of control

Please fill in: calcium oscillation score reported for GTCACCACTTTAATCT (sugars l4 d9 l3, PS) = 85.3 % of control

Query CTTTTTCTTGTTCTAAC (sugars l2 d11 l4, PS) yields calcium oscillation score of 57.9 % of control

The recorded calcium oscillation score for entry CACCTCATTAAGATCAC (sugars l3 d10 l4, PS) equals 76.6 % of control

GTATCCAGCCATATTTCAAC (sugars l3 d14 l3, PS) yielded calcium oscillation score of 36.7 % of control
